Experiment: in vivo
Settings: female, nude, mouse, iv
Method: In one example, female nude mice (n=10) were inoculated subcutaneously with 15×10^6 human K562 myelogenous leukemia cells in a 1:1 ratio with matrigel on the right flank. Tumor volumes were monitored and calculated using the formula: Tumor volume=(a^2×b/2) where ‘a’ is the smallest diameter and ‘b’ is the largest diameter. […] Tumor volumes were recorded three times a week starting when tumors were palpable and including the day of study termination. […]
Below, each entry is listed alongside its reported MTD.
Response body: numeric value in mg/kg, unit text excluded.

CC[C@]1(O)C[C@@H]2CN(CCc3c([nH]c4ccccc34)[C@@](C(=O)OC)(c3cc4c(cc3OC)N(C)[C@H]3[C@@](O)(C(=O)OC)[C@H](OC(C)=O)[C@]5(CC)C=CCN6CC[C@]43[C@@H]65)C2)C1
2.5

Next compound, MTD to be filled in.
What the record says about CC[C@]1(O)C[C@H]2CN(CCc3c([nH]c4ccccc34)[C@@](C(=O)OC)(c3cc4c(cc3OC)N(C=O)[C@H]3[C@@](O)(C(=O)OC)[C@H](OC(C)=O)[C@]5(CC)C=CCN6CC[C@]43[C@@H]65)C2)C1 : MTD is 1.5

----------
test: in vivo; settings: B6D2F1, mouse, in vivo, iv
metric name: MTD (mg/kg)
Numeric answer only, unit mg/kg assumed.

The reported MTD of the compound CC[C@]1(O)C[C@H]2CN(CCc3c([nH]c4ccccc34)[C@@](C(=O)OC)(c3cc4c(cc3OC)N(C=O)[C@H]3[C@@](O)(C(=O)OC)[C@H](OC(C)=O)[C@]5(CC)C=CCN6CC[C@]43[C@@H]65)C2)C1 was 1

----------
assay: in vivo; conditions: female, nude, mouse, iv
metric name: MTD

// MTD value for CC[C@]1(O)C[C@H]2CN(CCc3c([nH]c4ccccc34)[C@@](C(=O)OC)(c3cc4c(cc3OC)N(C=O)[C@H]3[C@@](O)(C(=O)OC)[C@H](OC(C)=O)[C@]5(CC)C=CCN6CC[C@]43[C@@H]65)C2)C1 : 1.5 mg/kg
